MEASUREMENT TARGET: T1, AFP158/HLA-A*02:01 complex (human)
T1 construct: flowed over the chip in SPR; also called AFP158 pro
PROTOCOL DESCRIPTION: SPR, KD ratio to AS170036 VL1VH1;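 also: crude scFv captured on a sensor chip, peptide–HLA complex passed over at several concentrations, association then buffer dissociation, KD derived from on- and off-rates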
ENDPOINT NAME: Affinity increase (fold)
Numbers only here, please. The scale is fold.

HL107N (scFv, AS170036 VL1VH1 scFv mutein) scFv: QSALTQPRSVSGSPGQSVTISCAGTSSDVGSENYVSWYQQHPGKAPKLMIYQVNKRASGVPDRFSGSKSGNTASLTISGLQAEDEADYYCASYRSSDHNIVFGGGTKLTVLGGGGSGGGGSGGGGSEVQLVESGGGLVQPGGSLRLSCAASGFTFSSYAMSWVRQAPGKGLEWVSTINSGTGSPYYADSVKGRFTISRDNSKNTLYLQMNSLRAEDTAVYYCAKNFFDGSWFNGPPAMDYWGQGTLVTVSSHHHHHH; 0.5

Okay, next one:
Using the record for HG56T (scFv, AS170036 VL1VH1 scFv mutein) scFv: QSALTQPRSVSGSPGQSVTISCAGTSSDVGSENYVSWYQQHPGKAPKLMIYQVNKRASGVPDRFSGSKSGNTASLTISGLQAEDEADYYCASYRSSDHNIVFGGGTKLTVLGGGGSGGGGSGGGGSEVQLVESGGGLVQPGGSLRLSCAASGFTFSSYAMSWVRQAPGKGLEWVSTINSGTTSPYYADSVKGRFTISRDNSKNTLYLQMNSLRAEDTAVYYCAKNFFDGSWFLGPPAMDYWGQGTLVTVSSHHHHHH , report its Affinity increase.
0.7
